# ASSAY: Pharmacokinetic assessment of veliparib plasma concentrations after a single oral dose
# Assay type: in vivo, human
# DETAILS: human, plasma; 200 mg single oral dose, N = 46, harmonic mean ± pseudo SD; read-out: t1/2 (converted)
QUANTITY MEASURED: half-life (h)
One number for each entry, in h.

-- ask Given the entry C[C@]1(c2nc3c(C(N)=O)cccc3[nH]2)CCCN1 [Veliparib] , report its measured half-life.
-- reply 5.3

* * *

# ASSAY: Pharmacokinetic assessment of veliparib plasma concentrations after a single oral dose
# Assay type: in vivo, human
# DETAILS: human, plasma; 400 mg single oral dose, N = 46, mean ± SD
QUANTITY MEASURED: AUC(0-t) (ng·h/mL)
Give bare numbers, in ng·h/mL.

-- ask Can you look up the measured AUC(0-t) of C[C@]1(c2nc3c(C(N)=O)cccc3[nH]2)CCCN1 [Veliparib] for me?
-- reply 23800

* * *

# ASSAY: Pharmacokinetic assessment of veliparib plasma concentrations after a single oral dose
# Assay type: in vivo, human
# DETAILS: human, plasma, oral; similar for the 200 mg and 400 mg dose groups; read-out: terminal phase elimination half-life (t1/2) (converted)
QUANTITY MEASURED: half-life

-- ask Report half-life for C[C@]1(c2nc3c(C(N)=O)cccc3[nH]2)CCCN1 [Veliparib] please.
-- reply ~5.5 h

* * *

# ASSAY: Pharmacokinetic assessment of veliparib plasma concentrations after a single oral dose
# Format: in vivo, human
# DETAILS: human, plasma; 400 mg single oral dose, N = 46, harmonic mean ± pseudo SD; read-out: t1/2 (converted)
QUANTITY MEASURED: half-life (h)
Give bare numbers, in h.

-- ask What half-life value was documented for this compound, C[C@]1(c2nc3c(C(N)=O)cccc3[nH]2)CCCN1 [Veliparib] ?
-- reply 5.4

* * *

# ASSAY: Pharmacokinetic assessment of veliparib plasma concentrations after a single oral dose
# Assay type: in vivo, human
# DETAILS: human, plasma; 400 mg single oral dose, N = 46, mean ± SD; read-out: VZ/F
QUANTITY MEASURED: Vd/F (L)
Answers are plain numbers, in L.

-- ask Item under review: C[C@]1(c2nc3c(C(N)=O)cccc3[nH]2)CCCN1 [Veliparib] . Reported Vd/F?
-- reply 138

* * *

# ASSAY: Pharmacokinetic assessment of veliparib plasma concentrations after a single oral dose
# Type: in vivo, human
# DETAILS: human, plasma; 200 mg single oral dose, N = 47, mean ± SD
QUANTITY MEASURED: Cmax

-- ask Data request, read-out Cmax, for C[C@]1(c2nc3c(C(N)=O)cccc3[nH]2)CCCN1
-- reply 1320 ng/mL

* * *

# ASSAY: Pharmacokinetic assessment of veliparib plasma concentrations after a single oral dose
# Type: in vivo, human
# DETAILS: human, plasma; 200 mg single oral dose, N = 46, mean ± SD
QUANTITY MEASURED: AUC(0-inf)
In your response, put the unit directly after the numeric value.

-- ask Name the recorded AUC(0-inf) for C[C@]1(c2nc3c(C(N)=O)cccc3[nH]2)CCCN1 [Veliparib] .
-- reply 12000 ng·h/mL

* * *

# ASSAY: Pharmacokinetic assessment of veliparib plasma concentrations after a single oral dose
# Assay type: in vivo, human
# DETAILS: human, plasma; 400 mg single oral dose, N = 46, mean ± SD
QUANTITY MEASURED: AUC(0-inf) (ng·h/mL)
Give bare numbers, in ng·h/mL.

-- ask Could you tell me which AUC(0-inf) is on file for C[C@]1(c2nc3c(C(N)=O)cccc3[nH]2)CCCN1 ?
-- reply 25500

The reported measurements were obtained from paper PMC5083757.
